Value source: paper PMC9238395

experimental_target: T1, SPD_0310 (S. pneumoniae D39, UniProt Q04MC1 1-494)
T1 construct: SPD_0310, hypothetical protein of the UPF0371 family, S. pneumoniae D39; spd_0310 gene cloned from genomic DNA into pGEX-4T-1 (BamH I/Sal I); Homotetramer by crystal structure and DLS; also called apo-0310; apo-SPD_0310
T1 sequence: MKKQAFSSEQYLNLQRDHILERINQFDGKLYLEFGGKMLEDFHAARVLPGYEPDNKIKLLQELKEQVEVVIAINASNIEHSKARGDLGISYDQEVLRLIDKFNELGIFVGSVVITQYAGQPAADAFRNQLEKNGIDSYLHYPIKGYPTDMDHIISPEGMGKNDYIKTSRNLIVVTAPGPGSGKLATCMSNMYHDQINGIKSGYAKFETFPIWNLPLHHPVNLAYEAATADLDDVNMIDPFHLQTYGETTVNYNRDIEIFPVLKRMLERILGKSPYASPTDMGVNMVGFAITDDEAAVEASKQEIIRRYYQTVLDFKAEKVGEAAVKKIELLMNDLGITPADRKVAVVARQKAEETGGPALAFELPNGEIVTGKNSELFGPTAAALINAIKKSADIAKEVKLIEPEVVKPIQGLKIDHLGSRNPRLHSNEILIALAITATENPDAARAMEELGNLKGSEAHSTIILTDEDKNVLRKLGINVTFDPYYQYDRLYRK
assay_method_text: SPR; OpenSPR; SPD_0310 immobilised on a gold nanoparticle COOH sensor chip; analytes in 1× PBS, 30 μL/min; regeneration with 0.5 to ~10 mM HCl; 1:1 model
study_conditions: both partners purified
observed_property: Kd

Please review the following examples before continuing.
SPD_1609 (natural protein, S. pneumoniae D39, UniProt A0A0H2ZL87 1-355, looked up, source: expressed and purified using the GST system) CSGGSNSTTASSSEEKADKSQELVIYSNSVSNGRGDWLTAKAKEAGFNIKMVDIAGAQLADRVIAEKNNAVADMVFGIGAVDSNKIRDQKLLVQYKPKWLDKIDQSLSDKDNYYNPVIVQPLVLIGAPDVKEMPKDWTELGSKYKGKYSIYGLQGGTGRAILASILVRYLDEKGDLGVSEKGWEVAKEYFANAYTLQKGESSVVKALDKESPIQYGMIWGSGALIGQKEQNVEFKVMTPEIGVPFVTEQTMVLSTSKKQALAKEFIDWFGQSEIQVEYSKKFGSIPANKDALKELPEDTKKFVDQVKPQNIDWEAVGKHLDEWVEKAELEYVK = 6.92 nM
SPD_0227 (natural protein, SPD_0227, intracellular iron transporter of S. pneumoniae D39) MNIEGYSDLLKPELKGKIATADPANSSSAFAQLTNMLQAQGGYKDDKAWSYVKDLFTLIDGIVK = 420 nM
GAPDH (natural protein, S. pneumoniae D39, UniProt A0A0H2US80 1-335, looked up, GAPDH (Gap) of S. pneumoniae D39, recombinant; also called Gly-3-pho dehydrogenase; source: expressed and purified using the GST system) MVVKVGINGFGRIGRLAFRRIQNVEGVEVTRINDLTDPVMLAHLLKYDTTQGRFDGTVEVKEGGFEVNGKFIKVSAERDPEQIDWATDGVEIVLEATGFFAKKEAAEKHLKGGAKKVVITAPGGNDVKTVVFNTNHDVLDGTETVISGASCTTNCLAPMAKALQDNFGVVEGLMTTIHAYTGDQMILDGPHRGGDLRRARAGAANIVPNSTGAAKAIGLVIPELNGKLDGSAQRVPTPTGSVTELVAVLEKNVTVDEVNAAMKAASNESYGYTEDPIVSSDIVGMSYGSLFDATQTKVLDVDGKQLVKVVSWYDNEMSYTAQLVRTLEYFAKIAK = 103 nM

Problem: Which Kd value belongs to SPD_0226 (natural protein, SPD_0226, intracellular iron transporter of S. pneumoniae D39) MTVGLSYEDSAVKLLNDGANIKVVYPKEGTVFLPASAAIVKKSKNMENAKKFIDFIISQEVQDTLGTTTTNRPVRKNAKTSENMKPIDKIKTLTEDYDYVIKNKSDIVKKYNEVFTDIQSKQ ?
Solution: 1070 nM
